FYI, the data here is from paper PMC11940238.

System: MIA PaCa-2 cells
Assay: MTT test
Assay type: cell-based, human
Details: MIA PaCa-2, 24 h treatment
Readout kind: IC50
Please format your answer as a value with the unit trailing.

Ask | Report measured IC50; entry is Cc1ccc(C(C)C)cc1.Cc1ccc(C(C)C)cc1.Cc1ccc(NN)cc1C.[Cl-].[Cl][Ru].[Cl][Ru][Cl]
Reply | 50 µM
